assay: Plasma PK of non-radiolabeled encorafenib; assay type: in vivo, human; details: human, plasma, oral, 100 mg, plasma; GeoMean (GeoCV%); read-out: AUC0-24
measured.property: AUC(0-t) (µg·h/mL)
Dear colleague, please return just the value in µg·h/mL, with no unit written.

Entry under test: `COC(=O)N[C@@H](C)CNc1nccc(-c2cn(C(C)C)nc2-c2cc(Cl)cc(NS(C)(=O)=O)c2F)n1` . Its AUC(0-t) was 3.68
